# experimental_target: T1, soluble CD19-HSA fusion protein (CD19 extracellular domains fused to human serum albumin) (human, UniProt P15391 20-291)
# T1 construct: extracellular domain; also called recombinant CD19 antigen; not shown: human serum albumin
# T1 sequence (looked up): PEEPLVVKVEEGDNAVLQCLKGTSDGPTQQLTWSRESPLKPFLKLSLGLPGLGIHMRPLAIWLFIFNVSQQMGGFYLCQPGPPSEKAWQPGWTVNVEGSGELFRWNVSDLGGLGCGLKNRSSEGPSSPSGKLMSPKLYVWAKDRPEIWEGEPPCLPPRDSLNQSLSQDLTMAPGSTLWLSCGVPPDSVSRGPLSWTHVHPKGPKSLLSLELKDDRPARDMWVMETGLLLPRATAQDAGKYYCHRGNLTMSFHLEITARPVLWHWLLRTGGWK
# procedure_text: BLI (ForteBio Octet RED384), IgG on AHC sensors, 100 nM soluble CD19-HSA, 1:1 model
I'd be grateful if you could share measured kon for these entries.
Give the number; M⁻¹ s⁻¹ is assumed, so skip it.

Task item: Indicate the recorded kon value for this binder: Antibody 1 (antibody, V domains shown, Human IgG produced in Adimab yeast, purified on Protein A; Has the VH and VL of #1 scFv; also called CD19 Antibody 1) VH: QVQLVESGGGVVQPGRSLRLSCAASGFTFSSYGMHWVRQAPGKGLEWVALIWYDGSNKYYADSVKGRFTISRDNSKNTLYLQMNSLRAEDTAVYYCAKPVEGLLRGFDYWGQGTLVTVSS VL: EIVMTQSPGTLSLSPGERATLSCRASQSVSSSYLAWYQQKPGQAPRLLIYGASNRATGIPDRFSGSGSGTDFTLTISRLEPEDFAVYYCQQAGVFPFTFGGGTKVEIK
Reply: 53400

Task item: Indicate the recorded kon value for this binder: Antibody 7 (antibody, V domains shown, Human IgG produced in Adimab yeast, purified on Protein A; Has the VH and VL of #7 scFv; also called CD19 Antibody 7) VH: QVQLVESGGGVVQPGRSLRLSCAASGFTFSSYGMHWVRQAPGKGLEWVALIWYDGSNKYYADSVKGRFTISRDNSKNTLYLQMNSLRAEDTAVYYCAKPVEGLLRGFDYWGQGTLVTVSS VL: EIVMTQSPGTLSLSPGERATLSCRASQSVSSSYLAWYQQKPGQAPRLLIYGASSRATGIPDRFSGSGSGTDFTLTISRLEPEDFAVYYCQQAGGVPPFTFGGGTKVEIK
Reply: 70000

Task item: Indicate the recorded kon value for this binder: Antibody 6 (antibody, V domains shown, Human IgG produced in Adimab yeast, purified on Protein A; Has the VH and VL of #6 scFv; also called CD19 Antibody 6) VH: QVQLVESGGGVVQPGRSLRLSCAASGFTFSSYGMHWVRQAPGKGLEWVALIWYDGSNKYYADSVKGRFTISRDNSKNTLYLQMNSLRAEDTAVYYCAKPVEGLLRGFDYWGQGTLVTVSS VL: EIVLTQSPGTLSLSPGERATLSCRASQSVRSSYLAWYQQKPGQAPRLLIYGASSRATGIPDRFSGSGSGTDFTLTISRLEPEDFAVYYCQQAGVPPLTFGGGTKVEIK
Reply: 75600

Task item: Indicate the recorded kon value for this binder: Antibody 5 (antibody, V domains shown, Human IgG produced in Adimab yeast, purified on Protein A; Has the VH and VL of #5 scFv; also called CD19 Antibody 5) VH: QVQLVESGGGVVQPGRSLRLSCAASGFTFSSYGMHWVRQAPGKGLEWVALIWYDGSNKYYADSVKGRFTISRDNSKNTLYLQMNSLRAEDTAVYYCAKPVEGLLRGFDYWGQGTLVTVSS VL: EIVLTQSPGTLSLSPGERATLSCRASQSVSSSYLAWYQQKPGQAPRLLIYGASSRATGIPDRFSGSGSGTDFTLTISRLEPEDFAVYYCQQAGGVPPLTFGGGTKVEIK
Reply: 75600

Recorded values, source patent US20230346938A1.
